Measured %Inh, listed per entry.
# Test system: BRSK1;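 note: KINOMEscan kinase panel screen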
# Run Parameters: concentration: 1 μM,replicates: in singlicate; n = 1
Kindly provide the numeric value in % only, without the unit symbol.

O=C(NCC1CC1)c1ccc(-c2cc(C(=O)NC3CC3)ccc2F)cc1    0
Cn1ccc2ncnc(Oc3ccc(NC(=O)Nc4cccc(C(F)(F)F)c4)c(F)c3)c21    0
OCCn1cc(-c2cnc3nnn(Cc4ccc5ncccc5c4)c3n2)cn1    22
CC(=O)Nc1nc2cnc(Nc3cc(NC(=O)c4cccc(CC(C)(C)C#N)c4)ccc3C)nc2s1    23

Req: Which %Inh is reported for this molecule? CCN1CCN(CCCC(=O)Nc2n[nH]c3nc(-c4ccc(O)cc4)c(Br)cc23)CC1
Resp: 50

Req: Which %Inh is reported for this molecule? Cc1n[nH]c2cc(Nc3ccnc(Nc4cccc(CN5CCOCC5)c4)n3)ccc12
Resp: 0

Req: Which %Inh is reported for this molecule? Cc1cccc(-c2nc(Nc3ccncc3)c3sccc3n2)n1
Resp: 0

Req: Which %Inh is reported for this molecule? Cl.Nc1n[nH]c2cc(-c3ccccn3)ccc12
Resp: 0

Req: Which %Inh is reported for this molecule? CCn1c(-c2nonc2N)nc2cncc(Br)c21
Resp: 0
